The origin of these recorded values is patent US20250326771A1.

A collection of compounds and their measured EC50
- System: Jurkat HIV-luciferase clones
- assayName: Jurkat latency reversal assay
- Type: cell-based
- measurementSetup: Homo sapiens, 48 h; Jurkat latency reversal assay potency; read-out: Jurkat pEC50 (converted)

{"columns": ["structureAsSmiles", "EC50"],
 "data": [
  ["C[C@@H]1CN(CC(=O)N2CC(C)(C)c3[nH]c(=O)c(Cc4ccc(Cl)cc4O)cc32)[C@@H](CN2CCO[C@H](C(=O)NCc3ccc(CNC(=O)[C@@H]4CN(C[C@H]5CN[C@H](C)CN5CC(=O)N5CC(C)(C)c6[nH]c(=O)c(Cc7ccc(Cl)cc7O)cc65)CCO4)cc3)C2)CN1", "63.1 to 316 nM"],
  ["C[C@@H]1CN(CC(=O)N2CC(C)(C)c3[nH]c(=O)c(Cc4ccc(F)cc4F)cc32)[C@@H](CN2CCO[C@H](C(=O)NCc3ccc(CNC(=O)[C@@H]4CN(C[C@H]5CN[C@H](C)CN5CC(=O)N5CC(C)(C)c6[nH]c(=O)c(Cc7ccc(F)cc7F)cc65)CCO4)cc3)C2)CN1", "0.49 to 12.6 nM"],
  ["C[C@@H]1CN(CC(=O)N2CC(C)(C)c3[nH]c(=O)c(Oc4ccccc4)cc32)[C@@H](CN2CCO[C@H](C(=O)NCc3ccc(CNC(=O)[C@@H]4CN(C[C@H]5CN[C@H](C)CN5CC(=O)N5CC(C)(C)c6[nH]c(=O)c(Oc7ccccc7)cc65)CCO4)cc3)C2)CN1", "316 to 3310 nM"],
  ["C[C@@H]1CN(CC(=O)N2CC(C)(C)c3[nH]c(=O)c(Cc4ccc(F)cc4)cc32)[C@@H](CN2CCO[C@H](COc3ccc(C(=O)c4ccc(OC[C@@H]5CN(C[C@H]6CN[C@H](C)CN6CC(=O)N6CC(C)(C)c7[nH]c(=O)c(Cc8ccc(F)cc8)cc76)CCO5)cc4)cc3)C2)CN1", "0.49 to 12.6 nM"],
  ["COc1cc(Cl)ccc1Cc1cc2c([nH]c1=O)C(C)(C)CN2C(=O)CN1C[C@@H](C)NC[C@@H]1CN1CCO[C@H](C(=O)NCc2ccc(CNC(=O)[C@@H]3CN(C[C@H]4CN[C@H](C)CN4CC(=O)N4CC(C)(C)c5[nH]c(=O)c(Cc6ccc(Cl)cc6OC)cc54)CCO3)cc2)C1", "12.6 to 63.1 nM"],
  ["C[C@@H]1CN(CC(=O)N2CC(C)(C)c3[nH]c(=O)c(Cc4ccc(F)cc4)cc32)[C@@H](CN2CCN(CCc3cn(CCCCC(=O)N4CCN(C[C@H]5CN[C@H](C)CN5CC(=O)N5CC(C)(C)c6[nH]c(=O)c(Cc7ccc(F)cc7)cc65)[C@H](C)C4)nn3)C[C@H]2C)CN1", "63.1 to 316 nM"],
  ["C[C@@H]1CN(CC(=O)N2CC(C)(C)c3[nH]c(=O)c(Cc4ccc(Br)cc4)cc32)[C@@H](CN2CCO[C@H](C(=O)NCc3ccc(CNC(=O)[C@@H]4CN(C[C@H]5CN[C@H](C)CN5CC(=O)N5CC(C)(C)c6[nH]c(=O)c(Cc7ccc(Br)cc7)cc65)CCO4)cc3)C2)CN1", "12.6 to 63.1 nM"]
]}

* * *

- assayTarget: XIAP-BIR3 (Homo sapiens (Human))
- Sequence (P98170 241-356): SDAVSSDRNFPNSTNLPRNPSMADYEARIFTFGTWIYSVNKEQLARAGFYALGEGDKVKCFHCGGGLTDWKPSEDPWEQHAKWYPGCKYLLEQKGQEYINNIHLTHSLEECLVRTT
- assayName: BIR binding assay (FRET competition), XIAP BIR3
- Procedure: The BIR domain binding assays are FRET based competition assays that utilize His-tagged versions of each of the BIR2 and BIR3 domains from cIAP1, cIAP2, and XIAP (each domain assayed separately) each at a custom optimal concentration and a probe, 200 nM SMAC/DIABLO peptide […] labelled with AlexaFluor647 (part #crb 1110326h, Discovery Peptides). The assay is conducted in 50 mM HEPES, […], 1 mM CHAPS, 5% Glycerol, 1 mM DTT, in dI water with a final pH of 7.4 and final volume of 20 uL. […]
A collection of compounds and their measured IC50

{"columns": ["compound", "IC50"],
 "data": [
  ["C[C@@H]1CN(CC(=O)N2CC(C)(C)c3[nH]c(=O)c(Cc4cc(F)c(F)cc4F)cc32)[C@@H](CN2CCO[C@H](C(=O)NCc3ccc(CNC(=O)[C@@H]4CN(C[C@H]5CN[C@H](C)CN5CC(=O)N5CC(C)(C)c6[nH]c(=O)c(Cc7cc(F)c(F)cc7F)cc65)CCO4)cc3)C2)CN1 [Compound 175]", "15.8 to 31.6 nM"],
  ["C[C@@H]1CN(CC(=O)N2CC(C)(C)c3[nH]c(=O)c(Oc4ccc(F)cc4)cc32)[C@@H](CN2CCO[C@H](C(=O)NCc3ccc(CNC(=O)[C@@H]4CN(C[C@H]5CN[C@H](C)CN5CC(=O)N5CC(C)(C)c6[nH]c(=O)c(Oc7ccc(F)cc7)cc65)CCO4)cc3)C2)CN1 [Compound 181]", "1.38 to 7.94 nM"],
  ["C[C@@H]1CN(CC(=O)N2CC(C)(C)c3[nH]c(=O)c(Cc4ccc(F)cc4)cc32)[C@@H](CN2CCC[C@@H](NC(=O)CCCCCCC(=O)N[C@@H]3CCCN(C[C@H]4CN[C@H](C)CN4CC(=O)N4CC(C)(C)c5[nH]c(=O)c(Cc6ccc(F)cc6)cc54)C3)C2)CN1 [Example 44]", "15.8 to 31.6 nM"],
  ["C[C@@H]1CN(CC(=O)N2CC(C)(C)c3[nH]c(=O)c(Cc4ccc(F)cc4F)cc32)[C@@H](CN2CCO[C@H](COc3cccc(OC[C@@H]4CN(C[C@H]5CN[C@H](C)CN5CC(=O)N5CC(C)(C)c6[nH]c(=O)c(Cc7ccc(F)cc7F)cc65)CCO4)c3)C2)CN1 [Compound 190]", "15.8 to 31.6 nM"],
  ["C[C@@H]1CN(CC(=O)N2CC(C)(C)c3[nH]c(=O)c(Cc4ccc(F)cc4)cc32)[C@@H](CN2CCC(CC(=O)N(C)Cc3ccc(CN(C)C(=O)CC4CCN(C[C@H]5CN[C@H](C)CN5CC(=O)N5CC(C)(C)c6[nH]c(=O)c(Cc7ccc(F)cc7)cc65)CC4)cc3)CC2)CN1 [Example 106]", "1.38 to 7.94 nM"],
  ["C[C@@H]1CN(CC(=O)N2CC(C)(C)c3[nH]c(=O)c(Cc4ccc(Cl)cc4C#N)cc32)[C@@H](CN2CCO[C@H](C(=O)NCc3ccc(CNC(=O)[C@@H]4CN(C[C@H]5CN[C@H](C)CN5CC(=O)N5CC(C)(C)c6[nH]c(=O)c(Cc7ccc(Cl)cc7C#N)cc65)CCO4)cc3)C2)CN1 [Compound 171]", "31.6 to 501 nM"],
  ["C[C@@H]1CN(CC(=O)N2CC(C)(C)c3[nH]c(=O)c(Cc4ccc(F)cc4)cc32)[C@@H](CN2CCN(C(=O)Cc3ccccc3CC(=O)N3CCN(C[C@H]4CN[C@H](C)CN4CC(=O)N4CC(C)(C)c5[nH]c(=O)c(Cc6ccc(F)cc6)cc54)[C@H](C)C3)C[C@H]2C)CN1 [Example 7]", "15.8 to 31.6 nM"]
]}

* * *

- assayTarget: cIAP2-BIR3 (Homo sapiens (Human))
- Sequence (Q13489 238-349): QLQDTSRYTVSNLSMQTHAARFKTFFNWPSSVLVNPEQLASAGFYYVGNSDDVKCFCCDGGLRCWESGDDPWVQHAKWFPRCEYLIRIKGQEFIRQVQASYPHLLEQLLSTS
- assayName: BIR binding assay (FRET competition), cIAP2 BIR3
metric: IC50

{"columns": ["structureAsSmiles", "metric", "result"],
 "data": [
  ["C[C@@H]1CN(CC(=O)N2CC(C)(C)c3[nH]c(=O)c(Cc4ccc(F)cc4)cc32)[C@@H](CN2CCC(C(F)(F)COc3cccc(OCC(F)(F)C4CCN(C[C@H]5CN[C@H](C)CN5CC(=O)N5CC(C)(C)c6[nH]c(=O)c(Cc7ccc(F)cc7)cc65)CC4)c3)CC2)CN1", "IC50", "15.8 to 31.6 nM"],
  ["C[C@@H]1CN(CC(=O)N2CC(C)(C)c3[nH]c(=O)c(Cc4ccc(F)cc4)cc32)[C@@H](CN2CCO[C@H](COCCCCCCOC[C@@H]3CN(C[C@H]4CN[C@H](C)CN4CC(=O)N4CC(C)(C)c5[nH]c(=O)c(Cc6ccc(F)cc6)cc54)CCO3)C2)CN1", "IC50", "1.38 to 7.94 nM"],
  ["C[C@@H]1CN(CC(=O)N2CC(C)(C)c3[nH]c(=O)c(Cc4ccc(F)cc4)cc32)[C@@H](CN2CCO[C@H](COc3ccccc3-c3ccccc3OC[C@@H]3CN(C[C@H]4CN[C@H](C)CN4CC(=O)N4CC(C)(C)c5[nH]c(=O)c(Cc6ccc(F)cc6)cc54)CCO3)C2)CN1", "IC50", "7.94 to 15.8 nM"],
  ["C[C@@H]1CN(CC(=O)N2CC(C)(C)c3[nH]c(=O)c(Cc4ccc(F)cc4F)cc32)[C@@H](CN2CCO[C@H](C(=O)NCc3ccc(CNC(=O)[C@@H]4CN(C[C@H]5CN[C@H](C)CN5CC(=O)N5CC(C)(C)c6[nH]c(=O)c(Cc7ccc(F)cc7F)cc65)CCO4)cc3)C2)CN1", "IC50", "7.94 to 15.8 nM"],
  ["C[C@@H]1CN(CC(=O)N2CC(C)(C)c3[nH]c(=O)c(Cc4ccc(F)cc4)cc32)[C@@H](CN2CCO[C@H](C(=O)NCCCC(=O)N3CCN(C[C@H]4CN[C@H](C)CN4CC(=O)N4CC(C)(C)c5[nH]c(=O)c(Cc6ccc(F)cc6)cc54)[C@H](C)C3)C2)CN1", "IC50", "7.94 to 15.8 nM"],
  ["C[C@@H]1CN(CC(=O)N2CC(C)(C)c3[nH]c(=O)c(Cc4ccc(F)cc4)cc32)[C@@H](CN2CCN(C(=O)c3ccc(/C=C/c4ccc(C(=O)N5CCN(C[C@H]6CN[C@H](C)CN6CC(=O)N6CC(C)(C)c7[nH]c(=O)c(Cc8ccc(F)cc8)cc76)[C@H](C)C5)cc4)cc3)C[C@H]2C)CN1", "IC50", "15.8 to 31.6 nM"],
  ["C[C@@H]1CN(CC(=O)N2CC(C)(C)c3[nH]c(=O)c(Cc4ccc(F)cc4)cc32)[C@@H](CN2CCO[C@H](COc3ccc(C#N)c(OC[C@@H]4CN(C[C@H]5CN[C@H](C)CN5CC(=O)N5CC(C)(C)c6[nH]c(=O)c(Cc7ccc(F)cc7)cc65)CCO4)c3)C2)CN1", "IC50", "1.38 to 7.94 nM"]
]}
